molecular target: Matrix metalloproteinase-14 (Homo sapiens, UniProt P50281); assay: Inhibition of human recombinant MT1-MMP expressed in Escherichia coli by fluorogenic peptide cleavage assay
measured_parameter: IC50 (µM)
The answer is to be given in µM; state only the numeric part.

Here's what some known entries look like.
{"chemical_structure": "COc1c(O)cc(C(=O)O[C@@H]2Cc3c(O)cc(O)cc3O[C@H]2c2cc(O)c(O)c(O)c2)cc1O", "unit": "µM", "IC50": 10.5}
{"chemical_structure": "COc1cc(C(=O)O[C@@H]2Cc3c(O)cc(O)cc3O[C@H]2c2cc(O)c(O)c(O)c2)cc(O)c1O", "unit": "µM", "IC50": 3.1}
{"chemical_structure": "COc1c(O)cc(C(=O)O[C@@H]2Cc3c(O)cc(O)cc3O[C@@H]2c2ccc(O)c(O)c2)cc1O", "unit": "µM", "IC50": 3.7}

Turning now to a further molecule:
Inquiry: // query IC50 value for entry COc1cc(C(=O)O[C@H]2Cc3c(O)cc(O)cc3O[C@@H]2c2ccc(O)c(O)c2)cc(O)c1O
Reply text: 52

----------
biological target: UniProt:P09237; test: Inhibition of human recombinant MMP7 expressed in Escherichia coli by fluorogenic peptide cleavage assay
Sequence (P09237 whole entry): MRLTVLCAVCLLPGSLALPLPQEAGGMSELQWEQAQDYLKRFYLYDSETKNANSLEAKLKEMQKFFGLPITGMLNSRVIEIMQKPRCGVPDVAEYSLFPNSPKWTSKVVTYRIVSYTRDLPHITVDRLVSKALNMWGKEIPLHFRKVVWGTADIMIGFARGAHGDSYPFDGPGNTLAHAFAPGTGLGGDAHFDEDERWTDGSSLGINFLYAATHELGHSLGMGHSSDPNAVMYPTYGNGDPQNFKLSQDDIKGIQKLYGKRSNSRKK
pIC50: −log10 of the molar value.
measured_parameter: pIC50

Inquiry: So what's the measured pIC50 for this one? COc1c(O)cc(C(=O)O[C@@H]2Cc3c(O)cc(O)cc3O[C@@H]2c2ccc(O)c(O)c2)cc1O
Reply text: < 4.00

Inquiry: Any idea what pIC50 was measured for COc1cc(C(=O)O[C@@H]2Cc3c(O)cc(O)cc3O[C@@H]2c2ccc(O)c(O)c2)cc(O)c1O ?
Reply text: < 4.00

Inquiry: Returns the measured pIC50 for the input molecule. Input: COc1c(O)cc(C(=O)O[C@H]2Cc3c(O)cc(O)cc3O[C@@H]2c2ccc(O)c(O)c2)cc1O
Reply text: < 4.00

Inquiry: Return reported pIC50; argument: COc1cc(C(=O)O[C@H]2Cc3c(O)cc(O)cc3O[C@@H]2c2ccc(O)c(O)c2)cc(O)c1O
Reply text: < 4.00
